Entries annotated with measured MIC SA
tested on: S. aureus (ATCC 29213); assay: MIC determination, broth microdilution; type: cell-based, Staphylococcus aureus; conditions: value in brackets; S. aureus ATCC 29213; MHB-II, 37 °C, 18–24 h, triplicate

{"Compound": "CCCCCCCCCCCCCC(=O)N[C@H](CCCCN)C(=O)N[C@H](CCCCN)C(=O)N[C@H](CC(C)C)C(=O)N[C@H](Cc1ccccc1)C(=O)N[C@H](CCCCN)C(=O)N[C@H](CCCCN)C(=O)N1CCCC[C@H](C(N)=O)NC(=O)[C@@H](Cc2ccc(O)cc2)NC(=O)[C@@H](CCCNC(=N)N)NC(=O)[C@@H](CC(C)C)NC(=O)[C@@H]([C@H](C)CC)NC(=O)C1 [compound 18]", "Result operator": "=", "MIC SA, µM": 2.3}
{"Compound": "CC[C@@H](C)[C@H]1NC(=O)CN(C(=O)[C@@H](CCCCN)NC(=O)[C@@H](CCCCN)NC(=O)[C@@H](Cc2ccccc2)NC(=O)[C@@H](CC(C)C)NC(=O)[C@@H](CCCCN)NC(=O)[C@H](N)CCCCN)CCCC[C@H](C(N)=O)NC(=O)[C@@H](Cc2ccc(O)cc2)NC(=O)[C@@H](CCCNC(=N)N)NC(=O)[C@@H](CC(C)C)NC1=O [compound 9]", "Result operator": ">", "MIC SA, µM": 42.6}

* * *

system: human erythrocytes; conditions: 150 μM peptide; 0.5% (v/v) red blood cell suspension in PBS, 1 h at 37 °C, absorbance 414 nm; melittin positive control, PBS negative control; three wells
Non-standard residues stand in square brackets, D forms with d. Residues, ends and D or L forms follow the SMILES beside them. *: point of attachment. Butyryl = CCCC(=O)*
Reported property: % hemolysis of human erythrocytes (%)

{"Compound": "CCCCCCCCCC(=O)N[C@H](CCCCN)C(=O)N[C@H](CCCCN)C(=O)N[C@H](CC(C)C)C(=O)N[C@H](Cc1ccccc1)C(=O)N[C@H](CCCCN)C(=O)N[C@H](CCCCN)C(=O)N[C@@H](C(=O)N[C@H](CC(C)C)C(=O)N1CCCC[C@H](C(N)=O)NC(=O)[C@@H](Cc2ccc(O)cc2)NC(=O)[C@@H](CCCNC(=N)N)NC(=O)C1)[C@H](C)CC", "Reported property": "% hemolysis of human erythrocytes", "Measure unit": "%", "Reported": 81}
{"Compound": "CCCC(=O)N[C@H](CCCCN)C(=O)N[C@H](CCCCN)C(=O)N[C@H](CC(C)C)C(=O)N[C@H](Cc1ccccc1)C(=O)N[C@H](CCCCN)C(=O)N[C@H](CCCCN)C(=O)N[C@@H](C(=O)N[C@H](CC(C)C)C(=O)N[C@H](CCCNC(=N)N)C(=O)N[C@H](Cc1ccc(O)cc1)C(=O)N[C@H](CC(C)C)C(N)=O)[C@H](C)CC [compound 1] (Butyryl-[dK][dK][dL][dF][dK][dK][dI][dL][dR][dY][dL]-NH2)", "Reported property": "% hemolysis of human erythrocytes", "Measure unit": "%", "Reported": 100}
{"Compound": "CCCCCCCCCCCCCC(=O)N[C@H](CCCCN)C(=O)N[C@H](CCCCN)C(=O)N[C@H](CC(C)C)C(=O)N[C@H](Cc1ccccc1)C(=O)N[C@H](CCCCN)C(=O)N[C@H](CCCCN)C(=O)N[C@@H](C(=O)N1CCCC[C@H](C(N)=O)NC(=O)[C@@H](Cc2ccc(O)cc2)NC(=O)[C@@H](CCCNC(=N)N)NC(=O)[C@@H](CC(C)C)NC(=O)C1)[C@H](C)CC", "Reported property": "% hemolysis of human erythrocytes", "Measure unit": "%", "Reported": 83}
